Reference source for all entries: patent US8785459B2

Molecular target: B-Raf (Homo sapiens (Human), UniProt P15056)
Sequence (P15056 whole entry): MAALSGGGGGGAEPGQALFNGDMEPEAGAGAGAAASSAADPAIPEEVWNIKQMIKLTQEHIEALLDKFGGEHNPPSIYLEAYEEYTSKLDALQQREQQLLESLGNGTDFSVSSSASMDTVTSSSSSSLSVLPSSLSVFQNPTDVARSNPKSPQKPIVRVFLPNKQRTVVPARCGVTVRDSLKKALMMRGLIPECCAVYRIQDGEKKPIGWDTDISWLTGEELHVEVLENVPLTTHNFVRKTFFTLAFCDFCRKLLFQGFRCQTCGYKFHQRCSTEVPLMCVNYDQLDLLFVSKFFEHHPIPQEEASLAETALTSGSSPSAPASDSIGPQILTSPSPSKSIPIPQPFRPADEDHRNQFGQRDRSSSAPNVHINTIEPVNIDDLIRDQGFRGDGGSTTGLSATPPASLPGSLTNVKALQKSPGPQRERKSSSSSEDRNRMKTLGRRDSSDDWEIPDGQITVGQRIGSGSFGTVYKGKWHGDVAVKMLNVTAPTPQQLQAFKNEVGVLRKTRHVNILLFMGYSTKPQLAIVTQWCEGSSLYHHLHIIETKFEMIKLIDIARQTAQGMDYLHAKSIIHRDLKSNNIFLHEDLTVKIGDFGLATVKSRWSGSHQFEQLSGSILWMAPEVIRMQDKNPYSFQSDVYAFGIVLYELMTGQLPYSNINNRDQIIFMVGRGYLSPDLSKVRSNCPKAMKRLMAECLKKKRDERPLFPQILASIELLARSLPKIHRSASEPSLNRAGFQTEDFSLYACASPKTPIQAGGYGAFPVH
Assay: Raf kinase assay (B-Raf), [33P] incorporation into MEK1(K97R)
Assay type: biochemical
Conditions: 1.0 μM compound; read-out: B-Raf inhibition at 1.0 μM
ATTRIBUTE MEASURED: inhibition at 1 µM (%)
# value in %; strip the unit string

SAMPLE SMILES	TEST SYSTEM	inhibition at 1 µM [%]
CCOc1ccc(-c2ccc3ncnc(Nc4cccc5[nH]ncc45)c3c2)cc1	B-Raf (Homo sapiens (Human), UniProt P15056)	76.6
CS(=O)(=O)Nc1cccc(-c2ccc3ncnc(Nc4cccc(O)c4)c3c2)c1	B-Raf (Homo sapiens (Human), UniProt P15056)	93.4
COc1cc(-c2ccc3ncnc(Nc4ccc(F)c(O)c4F)c3c2)ccc1O	B-Raf (Homo sapiens (Human), UniProt P15056)	94.6
Oc1cccc(-c2ccc3ncnc(Nc4cccc5[nH]ncc45)c3c2)c1	B-Raf (Homo sapiens (Human), UniProt P15056)	75.4

response.value for COc1cc2ncnc(Nc3cccc(O)c3)c2cc1-c1ccc(N)cc1 (field: inhibition at 1 µM) = 83.7

---

Tested on: A549
Assay: Anti-proliferative activity, CellTiter-96 assay, A549
Format: cell-based
Settings: Homo sapiens, A549 cells, 72 hours incubation
Procedure: Antiproliferative Activity The anti-proliferative activities of the compounds with formula (I) and formula (II) with respect to four human cancer cell lines (A549, A375, MDA-MB-231, and COLO205) were measured using the CellTiter™-96 assay kit (Promega) following the manufacturer's instructions. […] Cell viability was determined by measuring absorbance at 490 nm using EMax® microplate reader (Molecular Devices). Data were processed and analyzed using GraphPad Prism version 4.
pIC50: −log10 of the molar value.
This listing pairs molecules with measured pIC50.

The examples below pair each entry with its known result.
MOLECULE	TEST SYSTEM	pIC50
COc1cc2ncnc(Nc3cccc(O)c3)c2cc1-c1ccc(O)cc1 [Compound 49]	A549	< 4.30
COc1ccc(-c2ccc3ncnc(Oc4cccc(O)c4)c3c2)cc1 [Compound 152]	A549	< 4.30
Oc1cc(Nc2ncnc3ccc(-c4ccc(Cl)cc4)cc23)c(F)cc1F [Compound 160]	A549	< 4.52

The record that follows has no pIC50 shown yet.
GET /value?item= N#Cc1cccc(-c2ccc3ncnc(Nc4cccc5[nH]ncc45)c3c2)c1 [Compound 102] &field=pIC50 returns < 4.30

---

Entries and their measured IC50 follow.
Tested on: COLO205
Experiment: Anti-proliferative activity, CellTiter-96 assay, COLO205
Format: cell-based
Details: Homo sapiens, COLO 205, COLO205 cells, 72 hours incubation
Hi! Could you send only the number? It should be in µM, unit omitted.

Per the records, this compound ( COc1cc(-c2ccc3ncnc(Nc4cccc5[nH]ncc45)c3c2)ccc1F ) has IC50 equal to 11.5

Consider Oc1ccc(-c2ccc3nccc(Nc4cccc5[nH]ncc45)c3c2)cc1 . Its measured IC50 is 9.6

Noted for COc1cc(-c2ccc3ncnc(Nc4ccccc4)c3c2)ccc1O : its IC50 reads 8.5

# IC50 (compound: Nc1ccc(F)c(-c2ccc3nccc(Nc4cccc5[nH]ncc45)c3c2)c1 ) is 8.3

The recorded IC50 for COc1ccc(-c2ccc3ncnc(Nc4cccc5[nH]ncc45)c3c2)cc1C=O is 9.6

Summary for this compound, COc1cc(-c2ccc3ncnc(Nc4ccc(Cl)c(O)c4)c3c2)ccc1O : IC50 is 7.8

Form: compound = COc1cc(-c2ccc3ncnc(Nc4cc(O)c(Cl)cc4F)c3c2)ccc1O ; IC50 = 7.9

# IC50 (compound: COc1cc(-c2ccc3ncnc(Nc4cc(O)c(C)cc4F)c3c2)ccc1O ) is 9.6
